From: ChEMBL document CHEMBL1145239

These molecules were tested on UniProtKB P14740; log10 of IC50 is the recorded read-out.
Sequence (P14740 whole entry): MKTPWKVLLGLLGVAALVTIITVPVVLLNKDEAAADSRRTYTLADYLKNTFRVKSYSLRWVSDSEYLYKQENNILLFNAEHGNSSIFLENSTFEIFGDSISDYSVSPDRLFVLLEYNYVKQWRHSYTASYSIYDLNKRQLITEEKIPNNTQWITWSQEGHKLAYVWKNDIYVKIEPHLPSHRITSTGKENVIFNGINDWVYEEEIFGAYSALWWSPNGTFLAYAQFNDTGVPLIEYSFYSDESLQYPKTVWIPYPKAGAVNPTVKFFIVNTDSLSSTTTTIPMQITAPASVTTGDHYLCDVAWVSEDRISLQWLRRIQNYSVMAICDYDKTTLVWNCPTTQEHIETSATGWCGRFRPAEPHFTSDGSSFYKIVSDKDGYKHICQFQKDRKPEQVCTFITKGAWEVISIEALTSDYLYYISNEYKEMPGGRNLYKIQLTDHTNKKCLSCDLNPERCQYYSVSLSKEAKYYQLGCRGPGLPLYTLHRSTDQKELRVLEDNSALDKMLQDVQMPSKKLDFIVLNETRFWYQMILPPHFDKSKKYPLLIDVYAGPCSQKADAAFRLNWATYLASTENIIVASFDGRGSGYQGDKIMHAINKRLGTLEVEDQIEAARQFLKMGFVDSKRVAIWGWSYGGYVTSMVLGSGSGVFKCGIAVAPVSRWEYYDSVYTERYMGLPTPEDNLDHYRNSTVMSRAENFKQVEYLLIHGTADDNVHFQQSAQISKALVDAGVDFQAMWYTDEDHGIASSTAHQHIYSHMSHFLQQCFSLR
Measure: log10 of IC50 (log10 of the value in nM)

INSERT INTO measurements (sample_smiles, target_desc, measure, result) VALUES
  ('N#C[C@@H]1CCCN1C(=O)[C@@H]1C[C@H](NCCc2ccccc2)CN1', 'UniProtKB P14740', 'log10 of IC50', 0.18),
  ('N#C[C@@H]1CCCN1C(=O)[C@@H]1C[C@H](N)CN1', 'UniProtKB P14740', 'log10 of IC50', 0.96),
  ('N#Cc1ccc(N[C@@H]2CN[C@H](C(=O)N3CCC[C@H]3C#N)C2)cc1', 'UniProtKB P14740', 'log10 of IC50', -0.59),
  ('N#C[C@@H]1CCCN1C(=O)[C@@H]1C[C@H](NC(=O)Nc2ccccc2)CN1', 'UniProtKB P14740', 'log10 of IC50', 0.04),
  ('N#C[C@@H]1CCCN1C(=O)[C@@H]1C[C@H](NS(=O)(=O)c2ccccc2)CN1', 'UniProtKB P14740', 'log10 of IC50', 0.59),
  ('N#C[C@@H]1CCCN1C(=O)[C@@H]1C[C@H](NC2CCCCC2)CN1', 'UniProtKB P14740', 'log10 of IC50', 0.56);
